- System: Pol Theta (1-894) (Homo sapiens (Human))
Reported property: IC50

COc1cccc(C)c1-c1cc(C)ncc1C(=O)Nc1nc2ccc(-c3ccc(C#N)cc3)nc2s1 | 371 nM
COc1ccc(C(F)(F)F)cc1-c1cc(C)ncc1C(=O)Nc1nc2ccc(-c3ccc(NC(C)=O)cc3)nc2s1 | 62 nM
COc1ccccc1-c1cnncc1C(=O)Nc1nc2ccc(-c3cc(C)c(NC(C)=O)c(C)c3)nc2s1 | 7.7 nM
COc1ccc(C#N)cc1-c1cc(C)ncc1C(=O)Nc1nc2ccc(-c3ccc(N4CCCC4=O)nc3)nc2s1 | 37 nM
Cc1cc(-c2cccc3[nH]ncc23)c(C(=O)Nc2nc3ccc(-c4ccc(C#N)cc4)nc3s2)cn1 | 121 nM
COc1ccccc1-c1cnncc1C(=O)Nc1nc2ccc(-c3cc(C)c(NC(C)=O)cc3C)nc2s1 | 3.1 nM
Cc1cc(-c2cc(C#N)ccc2C)c(C(=O)Nc2nc3ccc(-c4ccc(C#N)cc4)nc3s2)cn1 | 26 nM
COc1ccccc1-c1cnncc1C(=O)Nc1nc2ccc(OC3CCCC3)nc2s1 | 99 nM
COc1ccc(C#N)cc1-c1cc(CO)ncc1C(=O)Nc1nc2ccc(-c3ccc(C#N)cc3)nc2s1 | 4.7 nM
COc1ccc(C#N)cc1-c1cc(C)ncc1C(=O)Nc1nc2ccc(-c3ccc(N4CCCS4(=O)=O)cc3)nc2s1 | 23 nM
COc1ccccc1-c1cc(C(=O)O)ncc1C(=O)Nc1nc2ccc(-c3ccc(NC(C)=O)cc3)nc2s1 | 129 nM
Cn1nccc1-c1ccc2nc(NC(=O)c3ccc(C#N)nc3N3CCOCC3)sc2n1 | 206 nM
CC(=O)Nc1ccc(-c2ccc3nc(NC(=O)c4ccc(C#N)nc4N4CCOCC4)sc3n2)cc1 | 186 nM
COc1ccc(C#N)cc1-c1cc(C)ncc1C(=O)Nc1nc2ccc(C3CCOC3)nc2s1 (stereo not drawn) | 35 nM
COc1ccccc1-c1nc(C#N)ccc1C(=O)Nc1nc2ccc(-c3ccc(Cl)cc3)nc2s1 | 359 nM

---

- System: Pol Theta (1-894) (Homo sapiens (Human), UniProt O75417)
- Sequence (O75417 1-894): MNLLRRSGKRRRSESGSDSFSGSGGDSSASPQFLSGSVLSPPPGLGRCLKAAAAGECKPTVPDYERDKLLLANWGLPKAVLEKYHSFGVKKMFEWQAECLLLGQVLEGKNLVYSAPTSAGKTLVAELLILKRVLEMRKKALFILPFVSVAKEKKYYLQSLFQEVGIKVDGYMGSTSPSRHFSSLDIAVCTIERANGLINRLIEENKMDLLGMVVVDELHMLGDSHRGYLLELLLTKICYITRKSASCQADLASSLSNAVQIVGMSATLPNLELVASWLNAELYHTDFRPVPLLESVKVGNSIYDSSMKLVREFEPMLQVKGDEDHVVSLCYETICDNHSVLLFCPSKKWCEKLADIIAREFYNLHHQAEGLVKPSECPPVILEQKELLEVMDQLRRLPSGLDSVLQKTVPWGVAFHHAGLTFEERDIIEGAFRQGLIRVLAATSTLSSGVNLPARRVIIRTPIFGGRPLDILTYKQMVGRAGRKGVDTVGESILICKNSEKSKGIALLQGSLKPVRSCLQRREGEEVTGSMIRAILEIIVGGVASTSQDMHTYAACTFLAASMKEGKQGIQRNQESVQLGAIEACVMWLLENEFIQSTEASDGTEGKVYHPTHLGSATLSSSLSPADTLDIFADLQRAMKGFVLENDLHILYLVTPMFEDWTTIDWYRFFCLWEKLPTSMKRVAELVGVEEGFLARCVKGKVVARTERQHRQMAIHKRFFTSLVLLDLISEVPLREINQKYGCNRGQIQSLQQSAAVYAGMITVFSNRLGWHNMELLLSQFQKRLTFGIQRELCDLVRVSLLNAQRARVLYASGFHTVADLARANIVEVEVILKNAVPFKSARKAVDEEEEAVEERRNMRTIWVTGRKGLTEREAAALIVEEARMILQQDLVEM
pIC50: −log10 of the molar value.
Please use the following pIC50 ranges when assigning a class: lower range: < 7; middle range: ≥ 7 and < 8; upper range: ≥ 8

COc1ccccc1-c1cnncc1C(=O)Nc1nc2ccc(-c3ccc(NC(C)=O)c(F)c3)nc2s1 [Example 142] | upper range
COc1ccc(C#N)cc1-c1cnncc1C(=O)Nc1nc2ccc(-c3ccc(NC(C)=O)cc3)nc2s1 [Example 23] | middle range
COc1ccc(F)cc1-c1cc(C)ncc1C(=O)Nc1nc2ccc(-c3ccc(NC(C)=O)cc3)nc2s1 [Example 25] | middle range
Cc1cc(-c2cccc3c2OCO3)c(C(=O)Nc2nc3ccc(-c4ccc(C#N)cc4)nc3s2)cn1 [Example 68] | lower range
N#Cc1ccc(C(=O)Nc2nc3ccc(-c4ccc(Cl)cc4)nc3s2)c(N2CCOCC2)n1 [Example 1] | lower range
COc1ccccc1-c1cnncc1C(=O)Nc1nc2ccc(-c3ccc(C#N)cc3C)nc2s1 [Example 121] | upper range
COc1ccccc1-c1cnncc1C(=O)Nc1nc2ccc(Oc3ccc(Cl)c(F)c3)nc2s1 [Example 130] | middle range
COc1ccccc1-c1ccncc1C(=O)Nc1nc2ccc(-c3ccc(Cl)cc3)nc2s1 [Example 2] | lower range
COc1ccc(C(N)=O)cc1-c1cc(C)ncc1C(=O)Nc1nc2ccc(-c3ccc(NC(C)=O)cc3)nc2s1 [Example 26] | lower range
COc1ccc(C#N)cc1-c1cc(C)ncc1C(=O)Nc1nc2ccc(-c3ccc(N4C(=O)COC4=O)c(C)c3)nc2s1 [Example 163] | middle range
